- Tested on: stable U20S reporter cells harboring Per2-dLuc
- EXPERIMENT DESCRIPTION: Per2 assay for evaluating the potency of test compounds (circadian luciferase reporter)
- Format: cell-based
- RECORDED CONDITIONS: amplitude of Per2-dLuc luminescence vs log concentration
READOUT: EC50 (µM)
# value in µM; strip the unit string

Query block: Please give the measured EC50 for this compound: CC(O)(CN1CCOCC1=O)Cn1c2ccc(F)cc2c2cc(F)ccc21 (stereo not drawn) [Compound 56]
Result block: 1.06

Query block: Same read-out for C[C@@H]1CCC(=O)N1C[C@H](O)Cn1c2ccccc2c2ccccc21 [Compound 111] ?
Result block: 0.095

Query block: // next record COC1CCCN(CC(O)Cn2c3ccc(F)cc3c3cc(F)ccc32)C1=O (stereo not drawn) [Compound 57]
Result block: 0.329

----------
For each of the compounds below, state its pEC50.
- Tested on: stable U20S reporter cells harboring Per2-dLuc
- EXPERIMENT DESCRIPTION: Per2 assay for evaluating the potency of test compounds (circadian luciferase reporter)
- Type: cell-based
- RECORDED CONDITIONS: amplitude of Per2-dLuc luminescence vs log concentration
Remember the convention: pEC50 equals -log10 of concentration in molar.

Query block: Looking for the measured pEC50 of O=C1N(CC(O)Cn2c3ccc(F)cc3c3cc(F)ccc32)CCCN1c1ccccc1 (stereo not drawn) [Compound 75] , can you help?
Result block: 6.77

Query block: # iterate: O=C1CCCCN1CC(O)Cn1c2ccccc2c2ccccc21 (stereo not drawn) [Compound 1]
Result block: 6.77

Query block: Consider next the compound C[C@@](O)(CN1CC[C@H](F)C1=O)Cn1c2ccc(F)cc2c2cc(F)ccc21 [Compound 125] in the same way.
Result block: 6.35

Query block: Now give it for CC(C)N1CCCN(CC(O)Cn2c3ccc(F)cc3c3cc(F)ccc32)C1=O (stereo not drawn) [Compound 77] too.
Result block: 6.21

Query block: And what about the compound CC1CCN(CC(O)Cn2c3ccccc3c3ccccc32)C(=O)C1 (stereo not drawn) [Compound 61] ?
Result block: 6.15

Query block: What about this compound? O=C1N(CC(O)Cn2c3ccc(F)cc3c3cc(F)ccc32)CCC1(F)F (stereo not drawn) [Compound 58]
Result block: 6.15

Query block: Quick one: C[C@H]1CCC(=O)N(C[C@H](O)Cn2c3ccc(F)cc3c3cc(F)ccc32)C1 [Compound 130]
Result block: 6.05

Query block: Also need O=C1N(CC(O)Cn2c3ccc(F)cc3c3cc(F)ccc32)CCN1c1ccccc1 (stereo not drawn) [Compound 89] , thanks.
Result block: 6.36

Query block: Follow-up item: O=C1[C@H]2CC[C@H](C2)N1C[C@H](O)Cn1c2ccccc2c2ccccc21 [Compound 107]
Result block: 7.05

Query block: Repeat with O=C1N(CC(O)Cn2c3ccc(F)cc3c3cc(F)ccc32)CCN1C1CCCCC1 (stereo not drawn) [Compound 88]
Result block: 6.51

Query block: How about this compound: CN1CCCN(CC(O)Cn2c3ccc(F)cc3c3cc(F)ccc32)C1=O (stereo not drawn) [Compound 6]
Result block: 6.14

Query block: Follow-up item: O=C1Nc2ccccc2CN1CC(O)Cn1c2ccc(F)cc2c2cc(F)ccc21 (stereo not drawn) [Compound 103]
Result block: 6.03

Query block: Try the compound CC(O)(CN1CCCN(C2CCCCC2)C1=O)Cn1c2ccc(F)cc2c2cc(F)ccc21 (stereo not drawn) [Compound 82]
Result block: 5.92

Query block: Same read-out for O=C1N(CC(O)Cn2c3ccc(F)cc3c3cc(F)ccc32)CCN1C1CCC1 (stereo not drawn) [Compound 93] ?
Result block: 6.89

Query block: Param item: C[C@H]1CCC(=O)N1C[C@H](O)Cn1c2ccccc2c2ccccc21 [Compound 112]
Result block: 6.33
